Parameter Ki, tested on human SERT (Homo sapiens), listed per item.
Sequence (P31645 whole entry): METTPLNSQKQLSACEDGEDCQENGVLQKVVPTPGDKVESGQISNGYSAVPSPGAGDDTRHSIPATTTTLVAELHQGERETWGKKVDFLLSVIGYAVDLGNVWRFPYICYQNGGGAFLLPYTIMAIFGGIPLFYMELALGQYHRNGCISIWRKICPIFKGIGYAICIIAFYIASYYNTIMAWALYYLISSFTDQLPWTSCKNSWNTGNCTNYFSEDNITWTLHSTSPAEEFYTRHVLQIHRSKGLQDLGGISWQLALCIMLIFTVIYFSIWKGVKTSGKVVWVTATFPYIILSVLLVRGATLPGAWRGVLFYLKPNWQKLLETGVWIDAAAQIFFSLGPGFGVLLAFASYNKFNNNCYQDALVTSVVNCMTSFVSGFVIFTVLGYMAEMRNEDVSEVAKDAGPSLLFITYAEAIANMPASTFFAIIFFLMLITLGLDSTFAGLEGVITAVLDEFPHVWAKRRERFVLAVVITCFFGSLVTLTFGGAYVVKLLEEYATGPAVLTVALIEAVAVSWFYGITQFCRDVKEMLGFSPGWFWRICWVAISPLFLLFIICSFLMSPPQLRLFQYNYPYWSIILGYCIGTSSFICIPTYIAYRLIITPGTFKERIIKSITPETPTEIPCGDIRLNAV
Structures can show the parent of a compound that is named as a salt.
Give bare numbers, in nM.

Field: example entries. Status: answers known.
compound: COc1ccc(C2CN(C)Cc3cc(CCCCN4CCCCC4)cnc32)cc1 (centres unmarked) [Example 49, trifluoroacetic acid salt]
system.name: human SERT (Homo sapiens)
unit.abbreviation: nM
measured.result: 2000

compound: Clc1ccc(C2CNCc3cc(OCCCN4CCCCC4)ncc32)cc1 (centres unmarked)
system.name: human SERT (Homo sapiens)
unit.abbreviation: nM
measured.result: 141

compound: CC(C)N1CCC(COc2cc3c(cn2)C(c2ccc(Cl)c(Cl)c2)CN(C)C3)CC1 (centres unmarked)
system.name: human SERT (Homo sapiens)
unit.abbreviation: nM
measured.result: 31

compound: c1ccc(C2CNCc3cc(OCCCN4CCCCC4)ncc32)cc1 (centres unmarked)
system.name: human SERT (Homo sapiens)
unit.abbreviation: nM
measured.result: 2330

compound: CCN(CC)CCCOc1cc2c(cn1)C(c1ccc(Cl)c(Cl)c1)CN(C)C2 (centres unmarked)
system.name: human SERT (Homo sapiens)
unit.abbreviation: nM
measured.result: 30

compound: COc1ccc(C2CN(C)Cc3cc(OCCCN4CCOCC4)ncc32)cc1 (centres unmarked)
system.name: human SERT (Homo sapiens)
unit.abbreviation: nM
measured.result: 70

# batch: return Ki for each of the 5 compounds below
1. CCN(CC)CCCOc1cc2c(cn1)C(c1ccc(Cl)c(Cl)c1)CNC2 (centres unmarked)
2. COc1ccc(C2CNCc3cc(OCCCN4CCCCC4)ncc32)cc1 (centres unmarked)
3. Fc1ccc(C2CNCc3cc(OCCCN4CCCCC4)ncc32)cc1 (centres unmarked)
4. COc1ccc(C2CN(C)Cc3cc(OCC4CCN(C(C)C)CC4)ncc32)cc1 (centres unmarked)
5. CN1Cc2cc(OCCCN3CCCCC3)ncc2C(c2ccc(Cl)c(Cl)c2)C1 (racemic)

1. 26
2. 147
3. 1030
4. 62
5. 120

# batch: return Ki for each of the 6 compounds below
1. CN1Cc2cc(OCCCN3CCCCC3)ncc2C(c2ccccc2F)C1 (centres unmarked)
2. CN1Cc2cc(OCCCN3CCCCC3)ncc2C(c2ccccc2)C1 (centres unmarked)
3. COc1ccc(C2CNCc3cc(OCCCN4CCOCC4)ncc32)cc1 (centres unmarked)
4. COc1ccc(C2CN(C)Cc3cc(OCCCN4CCCCC4)ncc32)cc1 (centres unmarked)
5. Clc1ccc(C2CNCc3cc(OCCCN4CCCCC4)ncc32)cc1Cl (racemic) [Example 15]
6. COc1ccc(C2CN(C)Cc3nc(OCCCN4CCCCC4)ccc32)cc1 (centres unmarked)

1: 768; 2: 1140; 3: 189; 4: 107; 5: 33; 6: 7

# batch: return Ki for each of the 2 compounds below
1. Clc1ccc(C2CNCc3cc(OCCCN4CCCCC4)ncc32)cc1Cl (single isomer, unassigned; enantiomer b) [Example 46]
2. Clc1ccccc1C1CNCc2cc(OCCCN3CCCCC3)ncc21 (centres unmarked)

1. 16
2. 1330

# batch: return Ki for each of the 7 compounds below
1. COc1ccc(C2CN(C)Cc3cc(C#CCCN4CCCCC4)cnc32)cc1 (centres unmarked) [Example 48, trifluoroacetic acid salt]
2. CCN(CC)CCCOc1cc2c(cn1)C(c1ccccc1)CN(C)C2 (centres unmarked)
3. COc1cccc(C2CN(C)Cc3cc(OCCCN4CCCCC4)ncc32)c1 (centres unmarked)
4. COc1ccc(C2CN(C)Cc3nc(C#CCCN4CCCCC4)ccc32)cc1 (centres unmarked)
5. CCN(CC)CCCOc1cc2c(cn1)C(c1ccc(OC)cc1)CNC2 (centres unmarked)
6. Clc1ccc(C2CNCc3cc(OCCCN4CCOCC4)ncc32)cc1Cl (centres unmarked)
7. CN1Cc2cc(OCCCN3CCCCC3)ncc2C(c2cccc(Cl)c2)C1 (centres unmarked)

1. 2000
2. 2000
3. 303
4. 32
5. 226
6. 611
7. 826
